Target: Phospho-EGFR (Tyr1068) in H1975 C797S cells (CRISPR-edited EGFR C797S) (Homo sapiens, UniProt P00533, C797S/L858R/T790M)
Sequence (P00533 25-1210 T790M/C797S/L858R): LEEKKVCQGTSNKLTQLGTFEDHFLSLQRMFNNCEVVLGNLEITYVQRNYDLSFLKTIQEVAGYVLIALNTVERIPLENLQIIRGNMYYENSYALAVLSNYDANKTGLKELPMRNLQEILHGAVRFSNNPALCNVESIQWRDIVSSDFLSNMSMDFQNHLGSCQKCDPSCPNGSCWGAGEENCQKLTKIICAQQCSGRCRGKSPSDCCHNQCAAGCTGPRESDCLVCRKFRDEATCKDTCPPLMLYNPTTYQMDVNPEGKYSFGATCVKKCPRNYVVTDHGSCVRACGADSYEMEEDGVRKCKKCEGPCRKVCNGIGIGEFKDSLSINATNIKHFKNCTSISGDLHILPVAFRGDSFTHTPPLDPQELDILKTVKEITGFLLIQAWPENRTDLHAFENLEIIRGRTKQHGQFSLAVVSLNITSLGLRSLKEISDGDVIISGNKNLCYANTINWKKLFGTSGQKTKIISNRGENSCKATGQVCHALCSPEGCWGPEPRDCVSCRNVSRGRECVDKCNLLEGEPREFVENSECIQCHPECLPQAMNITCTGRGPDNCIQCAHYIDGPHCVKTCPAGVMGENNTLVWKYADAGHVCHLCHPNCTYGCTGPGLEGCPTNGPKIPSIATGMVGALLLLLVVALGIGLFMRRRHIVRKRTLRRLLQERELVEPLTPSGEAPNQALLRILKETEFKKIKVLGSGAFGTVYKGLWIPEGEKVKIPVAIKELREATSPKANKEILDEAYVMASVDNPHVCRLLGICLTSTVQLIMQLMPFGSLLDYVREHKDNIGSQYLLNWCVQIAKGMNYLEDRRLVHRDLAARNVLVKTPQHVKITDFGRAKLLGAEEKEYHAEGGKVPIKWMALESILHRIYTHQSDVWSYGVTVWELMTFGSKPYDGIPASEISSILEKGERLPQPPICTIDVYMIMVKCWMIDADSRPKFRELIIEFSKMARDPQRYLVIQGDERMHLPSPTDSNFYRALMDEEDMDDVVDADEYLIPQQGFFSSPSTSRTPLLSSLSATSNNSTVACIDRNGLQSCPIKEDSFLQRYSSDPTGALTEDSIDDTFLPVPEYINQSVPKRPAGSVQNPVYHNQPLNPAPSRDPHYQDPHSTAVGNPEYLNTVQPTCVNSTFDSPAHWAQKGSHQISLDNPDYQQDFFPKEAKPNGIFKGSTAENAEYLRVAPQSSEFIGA
Test: HTRF pEGFR/total EGFR in H1975 C797S cells
Conditions: ratio pEGFR/total EGFR, compound 3 hours
ASSAY ENDPOINT: IC50

MOLECULE	ASSAY ENDPOINT	VALUE
C#Cc1c(C)c(=O)n(Cc2cccnc2)c2nc(Nc3ccc(N4CCN(C)CC4)cc3)ncc12 [Example 116]	IC50	> 3 µM
C#Cc1cc(=O)n2c3nc(ncc13)Nc1ccc(N3CCN(C)CC3)c(c1)C(=O)NCCC2 [Example 224]	IC50	> 3 µM
C#Cc1cc(=O)n2c3nc(ncc13)Nc1ccc(N3CCN(C)CC3)c(c1)S(=O)(=O)NCCC2 [Example 234]	IC50	1 to 3 µM
C#Cc1cc(=O)n(CC2CCCO2)c2nc(Nc3ccc(N4CCN(C)CC4)cc3)ncc12 (stereo not shown) [Example 72]	IC50	< 0.5 µM
C#Cc1cc(=O)n(-c2ccc(NS(C)(=O)=O)cc2)c2nc(Nc3ccccc3OC)ncc12 [Example 63]	IC50	> 3 µM
C#Cc1cc(=O)n([C@H]2CC[C@@H](NC(=O)CC(=O)N(C)C)CC2)c2nc(Nc3ccc(N4CCN(C)CC4)cc3)ncc12 [Example 95]	IC50	< 0.5 µM
C#Cc1cc(=O)n([C@H]2CC[C@@H](NC(=O)CCN(C)C)CC2)c2nc(Nc3ccc(N4CCN(C)CC4)cc3)ncc12 [Example 96]	IC50	> 3 µM

Where these numbers come from: patent US20260137703A1
